System: Wolbachia pipientis
Assay: Anti-Wolbachia Cell-Based Screen
Assay type: functional
Design: scale not given: in the data most compounds retested in dose-response had high values
Settings: 5 µM
Screen size: about 48,000 compounds; about 13,000 (27%) showed an effect of 50% or more. Some of the results follow.
Value type: Percent Effect (%)
Answer with a number only, understood to be in %.

Check out these entries, answers already filled in.
Compound: CCOC(=O)C1CCN(C(=O)Cc2c(C)nc(C)[nH]c2=O)CC1
Units of measure: %
Percent Effect: 4.435
--
Compound: COC(=O)C(O)C1CCN(CCc2ccncc2)CC1 (stereo unspecified)
Units of measure: %
Percent Effect: -5.946
--
Compound: CC(C)C(CCO)NC(=O)Nc1cc(F)ccc1-n1cccn1 (stereo unspecified)
Units of measure: %
Percent Effect: 1.933
--
Compound: CCN(C)C(=O)C1(c2ccc(F)cc2F)CCC1
Units of measure: %
Percent Effect: -1.611
--
Compound: CCC(Nc1ccc(CCN2CCCCC2)cc1)C(N)=O (stereo unspecified)
Units of measure: %
Percent Effect: 104.3

Could you now consider this next compound?
*Q* Provide value of Percent Effect for this record tested with Wolbachia pipientis: Cc1nn(C)c(C)c1C1CCCN1CCCC#N (stereo unspecified)
*A* 2.05
